Assay: Oral bioavailability in Sprague-Dawley rat at 6 mg/kg by LC-MS/MS analysis
Type: ADME, organism-based
Conditions: in vivo
readout: bioavailability (%)
Write the answer as a number in %, unit excluded.

smiles | readout | units.text | val
CC(=O)c1c(C)c2cnc(Nc3ccc(N4CCNCC4)cc3)nc2n2cc(C(C)(C)C)nc12 | bioavailability | % | 66.9

Incoming: So what does the record say about bioavailability for CC(=O)c1c(C)c2cnc(Nc3ccc(N4CCNCC4)cc3)nc2n2cc(C(C)C)nc12 ?
Outgoing: 65.2

---

Test system: MDA-MB-468
Assay: Antiproliferative activity against human MDA-MB-468 cells assessed as cell growth inhibition measured after 4 to 6 days by celltiter-glo luminescent cell viability assay
Format: functional, cell-based
readout: pIC50
Convention used: pIC50 is expressed as -log10 of the molar concentration.

compound | pIC50
CC(=O)c1c(C)c2cnc(Nc3ccc(N4CCNCC4)cc3)nc2n2cc(C(C)C)nc12 | 6.06
CC(=O)c1c(C)c2cnc(Nc3ccc(N4CCNCC4)cc3)nc2n2cc(C(C)(C)C)nc12 | 6.01
CCN1CCN(Cc2ccc(Nc3ncc(F)c(-c4cc(F)c5nc(C)n(C(C)C)c5c4)n3)nc2)CC1 [ABEMACICLIB] | 5.94

Incoming: So what does the record say about pIC50 for CC(=O)c1c(C)c2cnc(Nc3ccc(N4CCNCC4)cn3)nc2n(C2CCCC2)c1=O [PALBOCICLIB] ?
Outgoing: 5.27

---

Here the recorded IC50 is given for each entry.
Target: CDK2/Cyclin A2 (Homo sapiens)
State the value with its unit after it.

smiles | IC50
CC(=O)c1c(C)c2cnc(Nc3ccc(N4CCNCC4)cc3)nc2n2cc(C(C)C)nc12 | 18.9 nM

Moving on to another compound below.
Incoming: So what does the record say about IC50 for CC(=O)c1c(C)c2cnc(Nc3ccc(N4CCNCC4)cc3)nc2n2cc(C(C)(C)C)nc12 ?
Outgoing: 60.3 nM

---

Assay: Intrinsic clearance in rat liver microsomes at 1 uM preincubated for 10 mins followed by NADPH addition and measured after 1 hr by LC-MS/MS analysis
Assay type: ADME, Microsome
Details: time 70 min, read-out: CLH
readout: microsomal CLint at 1 µM

smiles | val
CC(=O)c1c(C)c2cnc(Nc3ccc(N4CCNCC4)cc3)nc2n2cc(C(C)C)nc12 | 54 µL/min/mg

Incoming: So what does the record say about microsomal CLint at 1 µM for CC(=O)c1c(C)c2cnc(Nc3ccc(N4CCNCC4)cc3)nc2n2cc(C(C)(C)C)nc12 ?
Outgoing: 6 µL/min/mg

---

Tested on: U-87 MG
Test: Antiproliferative activity against human U-87 MG cells assessed as cell growth inhibition measured after 4 to 6 days by celltiter-glo luminescent cell viability assay
Format: functional, cell-based, U-87MG ATCC
Here the recorded IC50 is given for each entry.
Write the answer as a number in nM, unit excluded.

compound | IC50, nM
CC(=O)c1c(C)c2cnc(Nc3ccc(N4CCNCC4)cn3)nc2n2cc(C(C)C)nc12 | 291
CC(=O)c1c(C)c2cnc(Nc3ccc(N4CCNCC4)cc3)nc2n2cc(C(C)(C)C)nc12 | 49.3
CC(=O)c1c(C)c2cnc(Nc3ccc(N4CCC(N(C)C)C4)cn3)nc2n2cc(C(C)C)nc12 (stereo not given) | 536
CC(=O)c1c(C)c2cnc(Nc3ccc(N4CCNCC4)cc3)nc2n2cc(-c3ccccc3)nc12 | 412
CC(=O)c1c(C)c2cnc(Nc3ccc(N4CCNCC4)cc3)nc2n2cc(C3CCCCC3)nc12 | 122

Incoming: So what does the record say about IC50 for CC(=O)c1c(C)c2cnc(Nc3ccc(CN4CCNCC4)cn3)nc2n2cc(C(C)C)nc12 ?
Outgoing: 165

Incoming: Another compound to look at: CC(=O)c1c(C)c2cnc(Nc3ccc(C(=O)N4CCNCC4)cn3)nc2n2cc(C(C)C)nc12
Outgoing: 380

Incoming: Another compound to look at: CC(=O)c1c(C)c2cnc(Nc3ccc(N4CCNCC4)cc3)nc2n2cc(C)nc12
Outgoing: 1260

Incoming: Another compound to look at: CC(=O)c1c(C)c2cnc(Nc3ccc(N4CC5(CCOCC5)C4)cn3)nc2n2cc(C(C)C)nc12
Outgoing: 539

Incoming: Another compound to look at: CC(=O)c1c(C)c2cnc(Nc3ccc4c(n3)CCNC4)nc2n2cc(C(C)C)nc12
Outgoing: 3720
